B1: PCDHGA10 (parent)
chain: FGIEIEVTDINDNAPKFQAENLDV

# Variants of: B1
# PROCEDURE_DETAILS: protein stability index of a GFP-peptide fusion (GPS, HEK-293T) (PSI 1-6); higher = more stable;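 also: lentivirally expressed fusions sorted by FACS into six bins by GFP to DsRed ratio, PSI derived from sequencing read proportions per bin multiplied by bin number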
# EXPERIMENTAL_CONTEXT: c terminus: a fixed tail appended
Class assignment keyed on protein stability index, ranges low range (below 3), mid range (3 to below 4), high range (4 or more)

[Q] Class for `N21Q` ?
[A] low range

[Q] Class for `E6D` ?
[A] mid range

[Q] Class for `F1M` ?
[A] mid range

[Q] Class for `N13E` ?
[A] mid range

[Q] Class for `T8G` ?
[A] mid range

[Q] Class for `G2M` ?
[A] low range

[Q] Class for `V7Q` ?
[A] high range

[Q] Class for `V24R` ?
[A] mid range

[Q] Class for `F1R` ?
[A] high range

[Q] Class for `P15A` ?
[A] mid range

[Q] Class for `I3H` ?
[A] high range
